value kind: melting point

Observe how each entry below is paired with its result.
Cc1cc(C)n2ncc(C(N)=NO)c2n1 :: 227 to 229 °C
Clc1cccc2cc(I)cnc12 :: 97 to 99 °C
O=S(=O)(c1ccc(CBr)cc1)C(F)F :: 57 to 61 °C

**Query** Fill blank: measured melting point of the molecule Nc1nsc(N2CCCC2)n1 is ____.
**Result** 244 to 246 °C

**Query** Fill blank: measured melting point of the molecule Cc1nc(-c2ccccc2)ccc1C(=O)O is ____.
**Result** 190 to 192 °C

**Query** Fill blank: measured melting point of the molecule O=C1CC(c2ccccc2)=NN1 is ____.
**Result** 246 to 248 °C

**Query** Fill blank: measured melting point of the molecule Cc1ccc(-c2nn(-c3ccccc3)cc2CO)cc1C is ____.
**Result** 134 to 136 °C

**Query** Fill blank: measured melting point of the molecule CN(C)S(=O)(=O)c1c(Cl)nc2ccccn12 is ____.
**Result** 109 to 111 °C

----------
# melting point listing for each entry below

N#Cc1cccc(-n2ccnc2)n1 :: 97 to 99 °C
NCC(c1ccc(Cl)cc1Cl)c1c[nH]c2ccccc12 (stereo not drawn) :: 130 to 132 °C
Nc1cc2c(cc1N)OCCO2 :: 124 to 126 °C
COc1cc(C(=O)O)ccc1OCc1ccccc1 :: 174 to 176 °C
c1n[nH]cc1C1CCCNC1 (stereo not drawn) :: 71 to 73 °C

**Query** Fill blank: measured melting point of the compound Nc1ccc(OCc2cccc(F)c2)c(Cl)c1 is ____.
**Result** 79 to 81 °C

**Query** Fill blank: measured melting point of the compound NC(=O)c1coc2ccccc12 is ____.
**Result** 144 to 146 °C

**Query** Fill blank: measured melting point of the compound Cc1cnn(-c2ccc(N)cc2F)c1 is ____.
**Result** 57 to 59 °C

**Query** Fill blank: measured melting point of the compound Oc1ccc2ccc(C(F)(F)F)nc2c1 is ____.
**Result** 255 to 257 °C

**Query** Fill blank: measured melting point of the compound CC(C)C(NC(=O)c1ccc(Cl)cc1)C(=O)O (stereo not drawn) is ____.
**Result** 197 to 199 °C

----------
value kind: melting point

N#Cc1cnc2c(OC(F)F)cccc2c1Cl :: 120 to 122 °C

**Query** Fill blank: measured melting point of the molecule CC(C)Sc1ccc(Cl)nn1 is ____.
**Result** 56 to 58 °C

----------
value kind: melting point

Observe how each entry below is paired with its result.
Cc1c(C(=O)O)oc2ccc(Br)cc12 :: 249 to 251 °C
Cc1ccc(S(=O)(=O)N2CCCC(C(=O)O)C2)cc1 (stereo not drawn) :: 149 to 151 °C
O=C(O)C(=Cc1ccc(Br)cc1)c1cccs1 :: 199 to 200 °C
Cc1ccccc1N1C(=O)c2ccc(C(=O)O)cc2C1=O :: 234 to 236 °C
Cc1ccc(Sc2ccc(Cl)cc2N)c(C)c1 :: 86 to 88 °C
NC(=O)COc1cccnc1 :: 93 to 95 °C
FC(F)(F)c1ccc(OCc2ccc(Cl)nc2)cc1 :: 106 to 108 °C
O=C(NC1(c2nn[nH]n2)CCCC1)c1ccccc1 :: 228 to 230 °C

**Query** Fill blank: measured melting point of the molecule CS(=O)(=O)CC1(CBr)CCOCC1 is ____.
**Result** 97 to 99 °C

**Query** Fill blank: measured melting point of the molecule O=C(c1cccnc1)C1CCOCC1 is ____.
**Result** 43 to 45 °C

**Query** Fill blank: measured melting point of the molecule Nc1ccc(C(=O)NC2CCCCC2)cc1 is ____.
**Result** 175 to 177 °C

**Query** Fill blank: measured melting point of the molecule CNC(=O)c1ccc(C=O)cc1 is ____.
**Result** 152 to 154 °C

**Query** Fill blank: measured melting point of the molecule O=c1[nH][nH]c2ncc(Br)cc12 is ____.
**Result** 219 to 221 °C

----------
# melting point listing for each entry below

O=Cc1cnc2ccc(Br)cn12 :: 162 to 164 °C
NC(=O)c1cccc([N+](=O)[O-])c1O :: 154 to 156 °C
O=C(O)c1c2c(nc3ccccc13)C(=Cc1cccc(Cl)c1Cl)CCC2 :: 294 to 296 °C
O=C(c1ccccc1)c1cc(Cl)ccc1Cl :: 91 to 93 °C
Cc1oc2cc(O)ccc2c(=O)c1-c1ccccc1Cl :: 182 to 184 °C
O=C(O)COc1ccc([N+](=O)[O-])c(F)c1 :: 149 to 151 °C
O=C(O)CC1CCCN1C(=O)c1ccc(Br)c(F)c1 (configuration not stated) :: 134 to 136 °C
Nc1ccc(N2CCCCC2)c(Cl)c1 :: 53 to 55 °C

Now let's try a different one.
**Query** Fill blank: measured melting point of the molecule Nc1ccc(S(=O)(=O)Nc2ccc(F)cc2F)cc1 is ____.
**Result** 162 to 164 °C

----------
# melting point listing for each entry below

Observe how each entry below is paired with its result.
NC(=O)c1cc(F)ccc1Br :: 152 to 154 °C
Cc1ccc(C)n1-c1ccc(CC(=O)O)cc1 :: 106 to 108 °C
CC1(c2ccccc2F)NC(=O)NC1=O (stereo not drawn) :: 214 to 216 °C
Cc1cc(-c2csc(N)n2)c(F)cc1F :: 219 to 221 °C
CCNC(=O)NC(C)(C)C(=O)O :: 150 to 152 °C

**Query** Fill blank: measured melting point of the molecule O=C(c1ccc(Cl)cc1)c1ncccn1 is ____.
**Result** 91 to 93 °C

**Query** Fill blank: measured melting point of the molecule O=C1CNC2CCCCC2N1 (stereo not drawn) is ____.
**Result** 121 to 123 °C

**Query** Fill blank: measured melting point of the molecule O=C1CCc2ccc(Cl)cc21 is ____.
**Result** 79 to 81 °C

**Query** Fill blank: measured melting point of the molecule Clc1ccnc2c(Br)cccc12 is ____.
**Result** 148 to 150 °C

----------
value kind: melting point

c1ccc(CCCc2nnn[nH]2)cc1 :: 90 to 92 °C
NS(=O)(=O)c1c(Cl)nc2ccccn12 :: 174 to 176 °C
NC(=S)Cc1nccn1Cc1ccccc1 :: 131 to 133 °C
O=C(Nc1ccccn1)C1CCNCC1 :: 113 to 115 °C
O=C1COc2cc(OCc3ccccc3)ccc21 :: 99 to 101 °C

**Query** Fill blank: measured melting point of the compound Cc1ccc(-c2ccc(O)cc2)cc1 is ____.
**Result** 155 to 157 °C

**Query** Fill blank: measured melting point of the compound Fc1ccc2nc(S)n(-c3ccccc3F)c2c1 is ____.
**Result** 220 to 222 °C

----------
value kind: melting point

Observe how each entry below is paired with its result.
Nc1n[nH]c(=O)[nH]c1=O :: 334 to 336 °C
COC(=O)C(N)c1ccc(OC)cc1 (configuration not stated) :: 59 to 61 °C
O=C1CCCS(=O)(=O)c2ccccc21 :: 151 to 153 °C
CC(=O)N(C)c1ccc(S(=O)(=O)Cl)cc1 :: 133 to 135 °C
Cc1cc(C(=O)C(C)Cl)c(C)n1-c1ccc(Cl)cc1 (configuration not stated) :: 107 to 111 °C

**Query** Fill blank: measured melting point of the molecule CN(C)C(=O)CSc1ccccc1C(=O)O is ____.
**Result** < 17 °C

**Query** Fill blank: measured melting point of the molecule O=C(O)CCc1nnc(-c2ccccc2I)o1 is ____.
**Result** 84 to 86 °C

**Query** Fill blank: measured melting point of the molecule Fc1ccc(-c2ccc(Cl)nn2)cc1 is ____.
**Result** 159 to 161 °C

**Query** Fill blank: measured melting point of the molecule CCCCNc1c(N)n(CCC)c(=O)[nH]c1=O is ____.
**Result** 201 to 203 °C

**Query** Fill blank: measured melting point of the molecule CN(C)c1ncc(N)cn1 is ____.
**Result** 78 to 80 °C

----------
value kind: melting point

Observe how each entry below is paired with its result.
O=C(O)c1ccc2ncc(I)n2c1 :: 254 to 256 °C
N#Cc1cc2c(nc1Cl)CCCC2 :: 128 to 130 °C
CN(C)c1c(F)cc(C(=N)N)cc1F :: 95 to 97 °C
O=Cc1ccc(-c2cccc(Br)c2)o1 :: 99 to 101 °C
O=C(O)C1C2C3CC4C5CC(C42)C1C53 (configuration not stated) :: 101 to 103 °C

**Query** Fill blank: measured melting point of the molecule O=C1COc2cc([N+](=O)[O-])c(F)cc2N1 is ____.
**Result** 221 to 223 °C

**Query** Fill blank: measured melting point of the molecule NC(=NO)c1cccc(F)c1 is ____.
**Result** 73 to 75 °C
